Biological target: rat NaPi-2b (Rattus norvegicus)
Construct: expressed in transfected cells; host or cells: Xenopus oocytes injected with cRNA
Sequence (Q9JJ09 whole entry): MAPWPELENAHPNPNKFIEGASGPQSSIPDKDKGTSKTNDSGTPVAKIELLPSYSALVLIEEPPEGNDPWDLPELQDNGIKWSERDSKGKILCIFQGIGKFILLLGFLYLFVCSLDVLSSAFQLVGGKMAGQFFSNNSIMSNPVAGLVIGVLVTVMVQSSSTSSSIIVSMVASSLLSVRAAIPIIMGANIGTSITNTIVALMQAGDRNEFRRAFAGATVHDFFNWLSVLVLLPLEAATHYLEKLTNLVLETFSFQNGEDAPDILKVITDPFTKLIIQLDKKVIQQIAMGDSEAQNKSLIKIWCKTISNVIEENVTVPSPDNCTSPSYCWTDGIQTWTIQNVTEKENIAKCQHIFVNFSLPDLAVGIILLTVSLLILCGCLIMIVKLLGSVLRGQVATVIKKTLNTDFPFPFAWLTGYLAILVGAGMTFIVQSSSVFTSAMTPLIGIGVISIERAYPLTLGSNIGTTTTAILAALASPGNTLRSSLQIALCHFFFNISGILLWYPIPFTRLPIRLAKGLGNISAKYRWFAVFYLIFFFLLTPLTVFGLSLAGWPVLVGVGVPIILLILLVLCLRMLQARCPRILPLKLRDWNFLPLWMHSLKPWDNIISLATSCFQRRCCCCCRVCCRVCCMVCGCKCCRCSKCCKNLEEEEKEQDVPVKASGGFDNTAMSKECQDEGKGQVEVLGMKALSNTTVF
Test: Sodium-dependent phosphate uptake of Xenopus oocytes which expressed NaPi-2b (32P)
Type: cell-based
Conditions: phosphate uptake, oocytes expressing rat NaPi-2b; 300 μM, determined from inhibition curve
Method: Pharmacological Test Example 1 Experiment of Sodium-Dependent Phosphate Uptake of Xenopus oocytes which Expressed NaPi-2b Degenerate primers were prepared from sequences of mouse NaPi-2b disclosed in Hilfiker H. et al., Pro Natl Acad Sci USA, 95 (24): 14564-14569, […] and sequences of human and rat NaPi-2a disclosed in Magagnin S. et al., Proc Natl Aca Sci USA, 90 (13): 5979-5983, 1993. RNA was extracted from the rat small intestine using ISOGEN; manufactured by NIPPON GENE CO., LTD (Japan). […]

- COMPOUND: "Cc1ccc(/C=N/NC(=O)c2c(C)csc2NC(=O)c2cccc(CSCCS(=O)(=O)O)c2)cc1 [Compound 782]"
  TESTED_ON: "rat NaPi-2b (Rattus norvegicus)"
  inhibition at 300 µM, %: 86.8
- COMPOUND: "CC(O)CN(Cc1cccc(C(=O)Nc2cscc2C(=O)N/N=C/c2ccc(Cl)c(C(F)(F)F)c2)c1)CC(C)O (stereo not drawn) [Compound 978]"
  TESTED_ON: "rat NaPi-2b (Rattus norvegicus)"
  inhibition at 300 µM, %: 74.1
- COMPOUND: "O=c1c2cc(Cl)ccc2nc(-c2cccc(CSCCS(=O)(=O)O)c2)n1/N=C/c1ccc(Cl)c(C(F)(F)F)c1 [Compound 703]"
  TESTED_ON: "rat NaPi-2b (Rattus norvegicus)"
  inhibition at 300 µM, %: 57.9
- COMPOUND: "C/C(=N\\NC(=O)c1ccccc1NC(=O)c1ccncc1)c1cccc(C)c1 [Compound 249]"
  TESTED_ON: "rat NaPi-2b (Rattus norvegicus)"
  inhibition at 300 µM, %: 41.6
- COMPOUND: "Cc1cccc(/C=N/NC(=O)c2ccccc2NC(=O)c2ccccc2F)c1 [Compound 238]"
  TESTED_ON: "rat NaPi-2b (Rattus norvegicus)"
  inhibition at 300 µM, %: 30.6
- COMPOUND: "COc1ccc(C(=O)Nc2ccccc2C(=O)N/N=C/c2ccccn2)cc1OC [Compound 245]"
  TESTED_ON: "rat NaPi-2b (Rattus norvegicus)"
  inhibition at 300 µM, %: 31.7
- COMPOUND: "COc1ccc(C(=O)Nc2ccccc2C(=O)N/N=C/c2ccccc2Cl)cc1OC [Compound 231]"
  TESTED_ON: "rat NaPi-2b (Rattus norvegicus)"
  inhibition at 300 µM, %: 32.8
- COMPOUND: "CCSCCNCc1ccc(C(=O)Nc2ccc(Br)cc2C(=O)N/N=C/c2cccc(C)c2)cc1 [Compound 766]"
  TESTED_ON: "rat NaPi-2b (Rattus norvegicus)"
  inhibition at 300 µM, %: 81.9
- COMPOUND: "CN(C)CCn1nnnc1SCc1cccc(C(=O)Nc2ccc(Cl)cc2C(=O)N/N=C/c2ccc(O)cc2)c1 [Compound 471]"
  TESTED_ON: "rat NaPi-2b (Rattus norvegicus)"
  inhibition at 300 µM, %: 51
- COMPOUND: "COc1ccc(C(=O)Nc2ccccc2C(=O)N/N=C/c2ccc(-c3ccccc3)cc2)cc1OC [Compound 233]"
  TESTED_ON: "rat NaPi-2b (Rattus norvegicus)"
  inhibition at 300 µM, %: 33.6
- COMPOUND: "CCN(CC)CCN(C)Cc1cccc(-c2nc3sc4c(c3c(=O)n2/N=C/c2ccc(Cl)c(C(F)(F)F)c2)CCCC4)c1 [Compound 674]"
  TESTED_ON: "rat NaPi-2b (Rattus norvegicus)"
  inhibition at 300 µM, %: 85.1
- COMPOUND: "COc1ccc(C(=O)Nc2ccc(Br)cc2C(=O)N/N=C/c2ccccn2)cc1OC [Compound 243]"
  TESTED_ON: "rat NaPi-2b (Rattus norvegicus)"
  inhibition at 300 µM, %: 50.2

Origin of the recorded values: patent US8134015B2
